- TESTED_SYSTEM: HSPA5 tagged with Myc (pcDNA3.1) (UniProt P11021)
- ASSAY_DETAILS: Co-IP (IP: Flag, immunoblot: Myc), band intensity number under the Myc blot
- CONDITION_NOTES: parent: 1.0
METRIC: ratio to parent

SBSPON tagged with 3×Flag (pcDNA3.1-3×Flag-SBSPON) (from UniProt Q8IVN8) HIS134Vla: 0.8
SBSPON tagged with 3×Flag (pcDNA3.1-3×Flag-SBSPON) (from UniProt Q8IVN8) LYS91Vla: 0.9
SBSPON tagged with 3×Flag (pcDNA3.1-3×Flag-SBSPON) (from UniProt Q8IVN8) ASP88Vla; LYS91Vla; GLU123Vla; HIS134Vla: 0.8
SBSPON tagged with 3×Flag (pcDNA3.1-3×Flag-SBSPON) (from UniProt Q8IVN8) ASP88Vla: 0.7
SBSPON tagged with 3×Flag (pcDNA3.1-3×Flag-SBSPON) (from UniProt Q8IVN8) GLU123Vla: 0.9
